- Tested system: SARS-CoV-2 wild-type spike receptor-binding domain (SARS-CoV-2, WT (MN908947), UniProt P0DTC2)

Binder	binding result
XGv295 (antibody, V domains shown) VH: QVQLVQSGAEVKKPGASVKVSCKASGYIFTNYYIHWVRQAPGQGLEWMAIFNPSAATASYAQKFQGRVTMTRDTSTTTVYMELRSLRFDDTAVYYCARAEGTSWLGWFDPWGQGTLVTVSS VL: QSVLTQPPSASGTPGQRVTVSCSGSSSNIGSHDVYWYQQLPGTAPKLLIYKNDQRPSGVPDRFSGSTSGTSASLAISGLRSEDEADYYCAAWDDGLSGSGWVFGGGTKLTVL	binds
XGv051 (antibody, V domains shown) VH: QVQLVQSGAEVKKPGSSVKVSCKASGGTFSNYALSWVRQAPGQGLEWMGGIIPIFGTTNYAQKFQGRVTITADESTSTAYMELSSLRSEDTAVYYCARLDGYSFGHDRYYQDGMDDWGPGTTVTVSS VL: DIQMTQSPSSLSASVGDRVTITCRASQAIRNDLGWYQQKPGKAPKCLIYAASTLQSGVPSRFSGSGSGTEFTLTISSLQPEDFATYFCLQQNIYPRTFGQGTKVEI	binds
XGv264 (antibody, V domains shown) VH: QITLKESGPTLVKPTQTLTLTCAFSGFSLNTGGAGVGWIRQPPGKALEWLALIYWDGDKRYNPSLKSRLAIIMDTSKNRVVLTMTNMDPVDTATYYCAHHKIEYIFDYWGQGTLVAVSS VL: QSALTQPASVSGSPGQSITVSCTGTSSDLGNFQYVSWYQHHPGKAPKLLIYEVSHRPSGVSNRFSGSKSGNTASLTISGLQAEDEADYYCCSYTTTTIPVAFGGGTRLTVL	binds
